Below is a list of entries, each paired with its recorded interaction score value.
Molecular target: T1, 4H949-bA
T1 chain: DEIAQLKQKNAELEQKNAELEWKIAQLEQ
Assay: two-hybrid library CCNG1;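 further: natural log of median RNA to DNA barcode read ratio; higher means stronger binding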

query: Report interaction score for DEIAQLKQENAELKQENAELKWEIAQLKQ [4H730-bA] please.
result: -0.437
